In this section, each of the molecules is paired with its reported Kd.
- target_of_assay: Cyno BCMA
- protocol_description: Kinetics and affinity of cyno BCMA/human IgG interactions by SPR (Bio-Rad Proteon XPR36)
- Assay type: binding, cynomolgus
- condition_notes: 37° C.
I'd appreciate it if you included the unit after the number.

* A02_Rd4_0.6 nM_C18: anti-BCMA antibody (antibody, V domains shown) VH: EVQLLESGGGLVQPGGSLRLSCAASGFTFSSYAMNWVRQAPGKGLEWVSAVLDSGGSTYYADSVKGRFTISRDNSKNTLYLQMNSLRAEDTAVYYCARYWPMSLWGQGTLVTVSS VL: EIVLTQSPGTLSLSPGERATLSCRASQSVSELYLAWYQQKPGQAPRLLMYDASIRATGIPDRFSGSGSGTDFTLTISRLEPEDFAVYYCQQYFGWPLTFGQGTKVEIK | 0.197 nM
* A02_Rd4_6 nM_C19: anti-BCMA antibody (antibody, V domains shown) VH: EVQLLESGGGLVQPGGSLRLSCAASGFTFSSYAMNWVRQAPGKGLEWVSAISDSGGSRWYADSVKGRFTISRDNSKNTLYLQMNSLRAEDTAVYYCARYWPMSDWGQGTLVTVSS VL: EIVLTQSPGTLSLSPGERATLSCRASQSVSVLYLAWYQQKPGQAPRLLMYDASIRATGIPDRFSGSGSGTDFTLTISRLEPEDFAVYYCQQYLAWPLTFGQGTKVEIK | 0.26 nM
* A02_Rd4_6 nM_C04: anti-BCMA antibody (antibody, V domains shown) VH: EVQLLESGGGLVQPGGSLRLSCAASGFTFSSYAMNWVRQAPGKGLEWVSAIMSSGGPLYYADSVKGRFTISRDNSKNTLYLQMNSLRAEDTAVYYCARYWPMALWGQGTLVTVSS VL: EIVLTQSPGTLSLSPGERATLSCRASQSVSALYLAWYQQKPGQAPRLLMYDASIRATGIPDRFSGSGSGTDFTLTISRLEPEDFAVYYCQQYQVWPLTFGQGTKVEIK | 0.381 nM
* A02_Rd4_0.6 nM_C06: anti-BCMA antibody (antibody, V domains shown) VH: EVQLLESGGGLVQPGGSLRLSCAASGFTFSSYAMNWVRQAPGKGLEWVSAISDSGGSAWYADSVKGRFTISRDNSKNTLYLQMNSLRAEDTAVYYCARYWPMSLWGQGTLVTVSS VL: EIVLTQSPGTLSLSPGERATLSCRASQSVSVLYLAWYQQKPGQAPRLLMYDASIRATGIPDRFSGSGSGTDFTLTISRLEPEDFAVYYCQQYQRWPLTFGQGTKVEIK | 0.058 nM

Lab note: next molecule to report on.
Consider the molecule A02_Rd4_6 nM_C08: anti-BCMA antibody (antibody, V domains shown) VH: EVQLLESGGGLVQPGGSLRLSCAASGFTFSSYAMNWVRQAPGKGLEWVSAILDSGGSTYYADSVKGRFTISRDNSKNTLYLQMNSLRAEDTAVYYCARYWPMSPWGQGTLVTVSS VL: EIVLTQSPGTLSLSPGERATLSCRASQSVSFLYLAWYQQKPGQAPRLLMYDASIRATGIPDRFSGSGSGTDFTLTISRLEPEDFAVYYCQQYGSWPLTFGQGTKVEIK . State its measured Kd.
5.07 nM
